Test details: protein stability index of a GFP-peptide fusion (yeast GPS) (PSI 1-4); higher = more stable; sorted into four equal gates, so the index is relative within each strain
Condition: ubr1∆
Measurement type: protein stability index
Give the figure only, with no unit attached.

[[record]]
sequence_input = "KEHAPYTDELEEDVYLD [FAS2]"
value_measured = 3.04


According to the records, this sequence SGCDSTKPSLRKASCIW [ECM29] displays protein stability index of 2.98

response.value for GDPFDYKAQADTFYMNV [RPB3] (field: protein stability index) = 3.36

----------
Test details: protein stability index of a GFP-peptide fusion (yeast GPS) (PSI 1-4); higher = more stable; sorted into four equal gates, so the index is relative within each strain
Condition: pdr5∆
Entries and their measured protein stability index follow.
Please state the value as a number alone, without comment.

Some solved cases for reference:
[[record]]
sequence_input = "DSQDYILSINAIDYEPE [SMC1]"
value_measured = 3.06

[[record]]
sequence_input = "PHSLATKTTGKCGSVTV [RPS2]"
value_measured = 1.27

[[record]]
sequence_input = "EVKLKASLKKMEETEQK [SMC3]"
value_measured = 3.16

[[record]]
sequence_input = "GRRLSMLASQANGGSTI [DSN1]"
value_measured = 2.7

[[record]]
sequence_input = "KQNPGLMQNMMNMFGGG [SRP54]"
value_measured = 2.36

[[record]]
sequence_input = "EETSHLLTVTPGPRLLY [RPN10]"
value_measured = 2.69

[[record]]
sequence_input = "DAWVSAAHYNRERIKRG [PRP8]"
value_measured = 1.81

[[record]]
sequence_input = "YWSDKKADTDTLLYEQI [SNF5]"
value_measured = 2.61


Per the record, DHHPEGLSAREAVKQAA [PRE10] has protein stability index of 2.53

Looking up VLESIVARTFWASKYGQ [BRR2] , I see its protein stability index listed as 2.37

YNEFLYSKAGREELERV [QCR8] has a reported protein stability index of 2.73

// sample KYRQTKLSKEERAARVA [RPL5] , its protein stability index was 3.05

Entry TAVKQGVTSLGIKATNG [PRE8] ; protein stability index = 2.06

sequence TKFNHNKEKSNSPTSFF [YOR098C/NUP1] , protein stability index observed: 2.85

Notebook: STLLCTDLESKSRMINF [SNU114] , protein stability index read as 2.96

Record TNIRRIIQDNISPRLVV [RRP46] , field protein stability index: 1.69

# sequence KLPLSVINVSAQRDRRY [RPS17A] ; its protein stability index = 1.77

The value of protein stability index measured for the sequence GKGIKLSIAEERDRRRA [RPS4A] turned out to be 2.87

Entry IRNARSIRAEAVAASST [POP1] ; protein stability index = 2.54

The value of protein stability index measured for the sequence YHSAGGRDKHALSLLYH [SSN3] turned out to be 3.02

Record summary for KHLWDQKSLAALKKSRS [RPC17] : reported protein stability index = 2.97

Lab note: NDSETHTEDESTKELKF [BRN1] gave protein stability index of 3.13

----------
Test details: protein stability index of a GFP-peptide fusion (yeast GPS) (PSI 1-4); higher = more stable; sorted into four equal gates, so the index is relative within each strain
Condition: doa10∆
Measurement type: protein stability index

[[record]]
sequence_input = "KKAEKAARKAEKAKSAG [RPL24A]"
measurement_type = "protein stability index"
value_measured = 3.34


Here is the next item to consider.
Record summary for KIIELMNKIFTIFKSGE [YML103C/NUP188] : reported protein stability index = 3.01

----------
Test details: protein stability index of a GFP-peptide fusion (yeast GPS) (PSI 1-4); higher = more stable; sorted into four equal gates, so the index is relative within each strain
Condition: san1∆
Hi, to clarify the labels: Yes covers protein stability index from 3 upward, No covers anything below 3.

[[record]]
sequence_input = "HSNRCIVFSKKEPFPHS [CSN12]"
answer_label = "No"

[[record]]
sequence_input = "DVSQLIAGINKKKGLDE [PRP28]"
answer_label = "Yes"

[[record]]
sequence_input = "VLTYPEKVTRYNRHKLQ [RPO31]"
answer_label = "No"


QUERY: Is reported protein stability index greater than or equal to 3 here: MSSQIIDRPKHELSRAE [SMD2]
RESULT: Yes

QUERY: Item ADINSNRLSNPQKNLLL [YOR098C/NUP1] with protein stability index of 3 or above?
RESULT: No

QUERY: Kindly determine if protein stability index recorded for TPAEMSRPATTTRNGFM [FAS2] is above or exactly 3.
RESULT: No

----------
Test details: protein stability index of a GFP-peptide fusion (yeast GPS) (PSI 1-4); higher = more stable; sorted into four equal gates, so the index is relative within each strain
Condition: san1∆
This listing pairs sequences with measured protein stability index.
Lab note: record just the number, no unit beside it.

[[record]]
sequence_input = "LAHVDQIVDIRNKRAVQ [YJL039C/NUP192]"
measurement_type = "protein stability index"
value_measured = 2.76

[[record]]
sequence_input = "RGHRIRREFKQYSLERN [PRP8]"
measurement_type = "protein stability index"
value_measured = 2.81

[[record]]
sequence_input = "KHEEIDTKNLYVIKALQ [RPS10A]"
measurement_type = "protein stability index"
value_measured = 1.64

[[record]]
sequence_input = "ALNSMCASIPIAIIKDT [RRP46]"
measurement_type = "protein stability index"
value_measured = 1.8

[[record]]
sequence_input = "QERQRQIQKNGPEITPE [PRP8]"
measurement_type = "protein stability index"
value_measured = 2.77

[[record]]
sequence_input = "LDSMIELFKDYKPGSIT [MED1]"
measurement_type = "protein stability index"
value_measured = 1.82


The value of protein stability index measured for the sequence LIIDDPSKGQSLSKISQ [RPP1] turned out to be 3.04

Noted for IVSEDHIILDTISECNL [MED1] : its protein stability index reads 3.2

For reference, reported protein stability index for MNECIADQDMEDEDMVD [ESC2] stands at 3.3

// field: protein stability index; key: SFIISSLDTLELESITE [NUT1] ; value = 1.78

The recorded protein stability index for EVIFTDVLKSQANTEPE [MCD1] is 2.97

The sequence identified as NIALVSKLRNNIRSQLL [SRP54] registered its protein stability index at 2.5

sequence FQYVIDESSGTSRIDEE [SMC4] , protein stability index observed: 2.05

// recorded protein stability index for RGQQVENPTDNFIIWIN [GRR1] : 2.59

----------
Each entry below lists one item and its recorded protein stability index value.
Test details: protein stability index of a GFP-peptide fusion (yeast GPS) (PSI 1-4); higher = more stable; sorted into four equal gates, so the index is relative within each strain
Condition: doa10∆
// response body must contain only the number

Would you please look over these solved cases?
[[record]]
sequence_input = "TSLATSAGQPNLLLSAS [ASC1]"
value_measured = 2.03

[[record]]
sequence_input = "ANRVTDKLTRVHDKIWC [PRE3]"
value_measured = 2


Could you now look at the following sequence, please?
Record QSYGGRPYGVGLLIIGY [PRE5] . Reported protein stability index: 2.96

----------
Test details: protein stability index of a GFP-peptide fusion (yeast GPS) (PSI 1-4); higher = more stable; sorted into four equal gates, so the index is relative within each strain
Condition: ubr1∆
Measurement type: protein stability index
Note: the reply should be a number with no unit written.

[[record]]
sequence_input = "KDLFELERYYKEQADIY [ARP7]"
value_measured = 3.41

[[record]]
sequence_input = "LLSLINSTHLLPLQPIE [SNF12]"
value_measured = 2.4


According to the records, this sequence GGIETILEHTLFKGTGF [PRP8] displays protein stability index of 3.47

----------
Test details: protein stability index of a GFP-peptide fusion (yeast GPS) (PSI 1-4); higher = more stable; sorted into four equal gates, so the index is relative within each strain
Condition: ubr1∆
Lab note: compare protein stability index against 3. Equal or greater, write rule met. Smaller, write rule not met.

[[record]]
sequence_input = "DVTAIQTWSYLSLYSTD [ECM29]"
answer_label = "rule not met"

[[record]]
sequence_input = "EREPVPLGILHIPICVT [RRP45]"
answer_label = "rule not met"

[[record]]
sequence_input = "AGVQGSKVSKQQAKGAF [RPL24B]"
answer_label = "rule met"

[[record]]
sequence_input = "VSPTVGKLFSDIKVLKR [YIL149C/MLP2]"
answer_label = "rule met"

[[record]]
sequence_input = "IRALQPKLKEGALHFVQ [YIL149C/MLP2]"
answer_label = "rule not met"

[[record]]
sequence_input = "GTPKTDSFIFDGTAKEV [MED4]"
answer_label = "rule not met"


In the following, a different sequence is considered.
QUERY: Given EAAFRNIKTIAETLAEE [RPS5] , state whether its protein stability index is at least 3.
RESULT: rule not met
